Attribution: the supplement of paper PMC12042874

assay: amyloid nucleation score (Sup35N fusion, yeast selection) (log enrichment); library NNK3; higher = more nucleation; inactive = no reads after selection;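 note: zero at mode of non-aggregating sequences after 7 days selection at 30°C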
READOUT: amyloid nucleation score

amyloid nucleation score for `RHEHREGNGDVPLNV` is inactive

amyloid nucleation score for `ASNSIKWFADHFPHSFVN` is inactive

amyloid nucleation score for `SISSEALVFYFRIAGTVIKR` is inactive

amyloid nucleation score for `LSYFSLLGFRYSRGVMGYQM` is inactive

Further cases:
amyloid nucleation score for `VKVEPVRLLWTHVWKS` is inactive

amyloid nucleation score for `NWTQSIFVGGQRDRLVISRT` is inactive

amyloid nucleation score for `VFNLLYVGFHVDSIGVGCVI` is 1.97

amyloid nucleation score for `FELYLQLN` is 0.478

###

assay: amyloid nucleation score (Sup35N fusion, yeast selection) (log enrichment); library NNK3; higher = more nucleation; inactive = no reads after selection
READOUT: amyloid nucleation score

amyloid nucleation score for `TLTYTKYYHFNCNRTLYESV` is 0.665

amyloid nucleation score for `SYFFVIQGQLGCITGVDFIW` is inactive

amyloid nucleation score for `TPMGQCAYHEPVNMVKKALR` is inactive

amyloid nucleation score for `GISFFIMFILVPLFRKGVKV` is inactive

amyloid nucleation score for `RRKWHEYSVVMSRTNHMCIW` is -0.118

amyloid nucleation score for `PSSSYPKSLRINMAFSFLMC` is 0.49

amyloid nucleation score for `SDSGLKKV` is inactive

amyloid nucleation score for `MDQMPKKYLVLAAAAVVRMV` is inactive

amyloid nucleation score for `WVLLKSWQNCLLGELVSEVQ` is inactive

amyloid nucleation score for `VKLSSFCRSNNCWYMRHAFL` is inactive

Further cases:
amyloid nucleation score for `SFWTMGNS` is inactive

amyloid nucleation score for `RMGYFSCQVRYSRFLTIPSR` is inactive

amyloid nucleation score for `SKLYYHNQLCFILMHTA` is inactive

amyloid nucleation score for `IVHCWLMSGASVWTLQETPN` is -0.105

amyloid nucleation score for `DATSNC` is -0.232

amyloid nucleation score for `LYTAATLGSTRLAYCKKEWG` is inactive

amyloid nucleation score for `RSEWQMTRNYRVWGCYI` is inactive

###

assay: amyloid nucleation score (Sup35N fusion, yeast selection) (log enrichment); library NNK1; higher = more nucleation; inactive = no reads after selection
READOUT: amyloid nucleation score
Hey, just send me the number, nothing else.

amyloid nucleation score for `GFWDFWVGRCLSSYVQFANL` is 0.28

amyloid nucleation score for `LWVVRI` is 0.67

amyloid nucleation score for `ELTGFFFCVRTSKCRIW` is 0.533

amyloid nucleation score for `GSMEHCNRNRFFFMGERLLR` is -1.1

amyloid nucleation score for `FGCTKANT` is -0.657

amyloid nucleation score for `IKVSIIGWGYILAPGGESNV` is -1.28

amyloid nucleation score for `LRYLQQWYST` is 2.67

amyloid nucleation score for `IYYRTMYYMVVSSIN` is 0.394

amyloid nucleation score for `NTHILYVWSVMCGHMN` is 3.35

amyloid nucleation score for `FLEFAYVVFKILEKNGGLSY` is -1.56

amyloid nucleation score for `VGSLFYKVRPGNNSFVTHIH` is 1.08

amyloid nucleation score for `MRLSCLRRWGSTSVSTG` is -0.305

amyloid nucleation score for `RARRGWSTGDEQHMSGKGIK` is 0.097

amyloid nucleation score for `ARPFRRCYSKADAWGVQQVG` is 0.556

amyloid nucleation score for `SKLLHMEWNQELDPSLSLLS` is -1.14

amyloid nucleation score for `DDWAGLKFSYLWSVCCKWWD` is 2.52

amyloid nucleation score for `LCVEVS` is 0.369

amyloid nucleation score for `RINSGHIK` is 0.247
